Measured mass density by item
- protocol conditions: 352.31 K; 10000 kPa; Liquid
Reply numerically in kg/m3, unit not repeated.

A selection of reference data follows.
- molecule: "CCCCn1cc[n+](C)c1.F[B-](F)(F)F [1-butyl-3-methylimidazolium tetrafluoroborate]"
  mass density [kg/m3]: 1166.5
- molecule: "CCCCn1cc[n+](C)c1.F[P-](F)(F)(F)(F)F [1-butyl-3-methylimidazolium hexafluorophosphate]"
  mass density [kg/m3]: 1326.3
- molecule: "CCn1cc[n+](C)c1.O=S(=O)([N-]S(=O)(=O)C(F)(F)F)C(F)(F)F"
  mass density [kg/m3]: 1470.2

Annotate the molecule `CCCC[n+]1ccn(C)c1.O=S(=O)([N-]S(=O)(=O)C(F)(F)F)C(F)(F)F` with its measured mass density.
1395.1
